# Tested on: Human immunodeficiency virus 1
# test-method-notes: Anti-HIV activity against HIV-1 infected in human CEM-SS cells assessed as inhibition of viral replication
# Format: functional, organism-based
# condition-parameters: Human immunodeficiency virus 1, CEM-SS
Collected pEC50 values appear next to each entry.
Keep it numeric: pEC50 is minus log10 of the concentration in mol/L.

# mol-smiles, system-under-test, pEC50
rows = [
    ("CC(C)(C)C(=O)SCCOP(=O)(OCCSC(=O)C(C)(C)C)OC[C@@H]1C=C[C@H](n2cnc3c(N)ncnc32)O1", "Human immunodeficiency virus 1", 7.74),
]

Form: Entry = `CC(C)(C)C(=O)OCCSP(=O)(OC[C@@H]1CC[C@H](n2cnc3c(N)ncnc32)O1)SCCOC(=O)C(C)(C)C` | System = Human immunodeficiency virus 1 | pEC50 = ____
7.60

Repeat for the following compound: `Cc1cn([C@H]2C=C[C@@H](COP(=O)(SCCOC(=O)C(C)(C)C)SCCOC(=O)C(C)(C)C)O2)c(=O)[nH]c1=O`
7.57

Queued: `Cc1cn([C@H]2CC[C@@H](CO)O2)c(=O)[nH]c1=O`
6.15

// data source = ChEMBL document CHEMBL5120747
